System: Vaccinia virus
Assay details: Evaluated for minimum inhibitory concentration against Vaccinia virus (VV) in primary rabbit kidney cells
Format: functional
Experimental context: Orthopoxvirus vaccinia

Molecule	Qualifier	MIC (µg/mL)
Cc1cn([C@@H]2C[C@H](CO)[C@@H](O)C2)c(=O)[nH]c1=O	=	2
Cc1cn([C@H]2CC[C@@H](CO)C2)c(=O)[nH]c1=O	>	400
Cc1cn(C2CC3OCC2C3CO)c(=O)[nH]c1=O (stereo not given)	>	400
NC(=O)c1ncn([C@@H]2O[C@H](CO)[C@@H](O)[C@H]2O)n1	=	10
Cc1cn([C@H]2C[C@@H](CO)[C@H](O)C2)c(=O)[nH]c1=O	>	400
Cc1cn([C@H]2C[C@H](O)[C@@H](CO)[C@@H]2C)c(=O)[nH]c1=O	>	400
Nc1nccc2c1ncn2[C@@H]1C[C@H](CO)[C@@H](O)[C@H]1O	=	0.7
Nc1ncnc2c1ncn2[C@@H]1C[C@H](CO)[C@@H](O)C1	=	100
O=c1[nH]c(=O)n([C@H]2C[C@H](O)[C@@H](CO)O2)cc1/C=C/Br	=	20
Cc1cn([C@@H]2C[C@H](CO)[C@H](O)C2)c(=O)[nH]c1=O	>	400

###

System: HeLa
Assay details: Evaluated for minimum inhibitory concentration against HeLa cells (human carcinoma) infected with VSV, Coxs, B4, polio-1 virus
Type: functional
Value kind: MIC

Compound	Value reported
O=c1[nH]c(=O)n([C@H]2C[C@H](O)[C@@H](CO)O2)cc1/C=C/Br	> 400 mg/L
Cc1cn([C@H]2C[C@@H](CO)[C@H](O)C2)c(=O)[nH]c1=O	> 100 mg/L
Cc1cn(C2CC3OCC2C3CO)c(=O)[nH]c1=O (stereo not given)	> 400 mg/L
Nc1ncnc2c1ncn2[C@@H]1C[C@H](CO)[C@@H](O)C1	> 100 mg/L
Cc1cn([C@@H]2C[C@H](CO)[C@@H](O)C2)c(=O)[nH]c1=O	> 100 mg/L
NC(=O)c1ncn([C@@H]2O[C@H](CO)[C@@H](O)[C@H]2O)n1	20 mg/L
Cc1cn([C@H]2C[C@H](O)[C@@H](CO)[C@@H]2C)c(=O)[nH]c1=O	> 400 mg/L
Cc1cn([C@@H]2C[C@H](CO)[C@H](O)C2)c(=O)[nH]c1=O	> 400 mg/L
Cc1cn([C@H]2CC[C@@H](CO)C2)c(=O)[nH]c1=O	> 400 mg/L
Nc1nccc2c1ncn2[C@@H]1C[C@H](CO)[C@@H](O)[C@H]1O	2 mg/L

###

// reported MIC per item
System: Human alphaherpesvirus 1
Assay details: Evaluated for minimum inhibitory concentration against TK-B2006 strain of Herpes simplex virus (HSV-1) in primary rabbit kidney cells
Format: functional

Molecule	MIC
Cc1cn([C@@H]2C[C@H](CO)[C@@H](O)C2)c(=O)[nH]c1=O	40 µg/mL
Cc1cn(C2CC3OCC2C3CO)c(=O)[nH]c1=O (centres undefined)	> 400 µg/mL
Cc1cn([C@@H]2C[C@H](CO)[C@H](O)C2)c(=O)[nH]c1=O	> 400 µg/mL
Cc1cn([C@H]2CC[C@@H](CO)C2)c(=O)[nH]c1=O	> 400 µg/mL
NC(=O)c1ncn([C@@H]2O[C@H](CO)[C@@H](O)[C@H]2O)n1	> 400 µg/mL
Nc1ncnc2c1ncn2[C@@H]1C[C@H](CO)[C@@H](O)C1	100 µg/mL
Nc1nccc2c1ncn2[C@@H]1C[C@H](CO)[C@@H](O)[C@H]1O	150 µg/mL
Cc1cn([C@H]2C[C@H](O)[C@@H](CO)[C@@H]2C)c(=O)[nH]c1=O	> 400 µg/mL
O=c1[nH]c(=O)n([C@H]2C[C@H](O)[C@@H](CO)O2)cc1/C=C/Br	> 200 µg/mL
